# Target Under Test: T1, human TPBG-hFc protein (human, UniProt Q13641 32-355)
# T1 construct: range 32-355; Expressed in HEK293 cells, purified on protein A; also called immunogen A; hFc tagged TPBG protein; not shown: human IgG Fc fragment of the pCpC vector
# T1 sequence (looked up): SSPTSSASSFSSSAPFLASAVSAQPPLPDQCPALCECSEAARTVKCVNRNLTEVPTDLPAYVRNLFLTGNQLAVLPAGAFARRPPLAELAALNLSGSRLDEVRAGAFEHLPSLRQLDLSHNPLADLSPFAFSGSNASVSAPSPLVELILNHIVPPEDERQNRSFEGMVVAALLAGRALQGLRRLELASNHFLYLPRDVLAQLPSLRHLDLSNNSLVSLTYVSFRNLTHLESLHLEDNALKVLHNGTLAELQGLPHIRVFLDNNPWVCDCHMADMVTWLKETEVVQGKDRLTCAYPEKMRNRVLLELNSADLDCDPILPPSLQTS
# Assay Info: ELISA, coated human TPBG-hFc
Each record here notes measured pEC50.
Give only the number. pEC50 is defined as minus log10 of concentration in molar units.

Recorded pEC50, per entry:
[
  {
    "Binder": "Humanized antibody 28D4-2 (antibody, V domains shown, also called h28D4-2) VH: EVQLVESGGGLVKPGGSLRLSCAASGFTFSNYVMSWIRQAPGKGLEWVSEISTGGSHTYYSDTVTGRFTISRDNAKNSLYLQMNSLRAEDTAVYYCIMFYYGSSYSMDYWGQGTTVTVSS VL: DIQMTQSPSSLSASVGDRVTITCRASQDIRNYLNWYQQKPGKAPKLLIYHTSRLHSGVPSRFSGSGSGTDFTFTISSLQPEDIATYYCQQGDTLPLTFGQGTRLEIK",
    "pEC50": 9.74
  },
  {
    "Binder": "Humanized antibody 12B12-1 (antibody, V domains shown, also called h12B12-1) VH: EVQLVESGGGLVQPGGSLRLSCAASGFTFSNFGMHWVRQAPGKGLEWVSYISSGSTSFYYADTVKGRFTISRDNAKNSLYLQMNSLRDEDTAVYYCSRTNSLLRGFFDAWGQGTTVTVSS VL: DIVMTQSPDSLAVSLGERATINCRASQSVSSSSYTYLHWYQQKPGQPPKLLIYSASNLESGVPDRFSGSGSGTDFTLTISSLQAEDVAVYYCQHSWEIPLTFGQGTKLEIK",
    "pEC50": 9.61
  }
]

Given Humanized antibody 12B12-11 (antibody, V domains shown, also called h12B12-11) VH: EVQLVESGGGVVQPGRSLRLSCAASGFTFSNFGMHWVRQAPGKGLEWVAYISSGSTSFYYADTVKGRFTISRDNSKNTLYLQMNSLRAEDTAVYYCSRTNSLLRGFFDAWGQGTTVTVSS VL: DIVMTQTPLSLSVTPGQPASISCRASQSVSSSSYTYLHWYLQKPGQPPQLLIYSASNLESGVPDRFSGSGSGTDFTLKISRVEAEDVGVYYCQHSWEIPLTFGQGTKLEIK , state its recorded pEC50. 9.62
